Numbers sourced from the RNAGym collection of RNA variant scans (doi:10.1101/gad.245936.114).

B1: tRNA (parent)
chain: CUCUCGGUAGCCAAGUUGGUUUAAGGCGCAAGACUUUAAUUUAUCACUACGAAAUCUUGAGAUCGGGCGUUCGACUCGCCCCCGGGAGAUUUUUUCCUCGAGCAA

# Variants of: B1
# PROCEDURE_TEXT: nonsense suppression (GFP-seq) (ratio to wild type); higher = more function; SUP4oc tRNA, yeast GFP reporter sort-seq
This sample holds only a part of the variants without activity.

MUTANT_ID	VALUE_MODIFIER	nonsense suppression
C11U	≤	0.026
U55C G73U	=	0.0422
C1U C3A C29A	≤	0.026
C12U A60U	=	0.723
G28A G66A	=	0.152
G25U G61A C82G G88U	≤	0.026
U21G A30U	≤	0.026
U4A U57A	≤	0.026
U20A A24C	=	0.192
A9C A30G	=	0.171
A30G C79U	=	0.207
G25C A31C G73A	≤	0.026
U17G C75U A87G	=	0.77
A54C G69C C75U U76G G85C	≤	0.026
U20C A30G	=	0.129
G78A C81G	=	0.0732
U17G G28C	=	0.209
G28C U55G	≤	0.026
A13U U76C	=	0.836
C3A G28A G73A A74G	≤	0.026
U20A U71A	≤	0.026
U21A U63G G86A	≤	0.026
A62G G65C	≤	0.026
U17C U76C	=	1.09
G15U U21A U55G	≤	0.026
C12U G28U	=	0.0705
U22A A33U A89C	≤	0.026
A33G C80U	=	0.0422
A24G A31G	=	0.0322
U57A C75A	=	0.681
G7C U55C	=	0.0823
C1A A13U	≤	0.026
U17G A30U	=	0.0613
C11A C12U G59A U71A	≤	0.026
U21G G61A C64A C81A	≤	0.026
G61C U71C	=	0.061
C1U A14U	≤	0.026
C29U U35C	=	0.0545
U17A A54G G85U	≤	0.026
C11A G25C G61C	≤	0.026
C5U G28C	=	0.0292
A23G G78A	=	0.0355
C1A U2G G19A G32C A89G	≤	0.026
G32U A54C C81G	≤	0.026
U2A U22G C29A C34A	=	0.221
U20G C80U	=	0.202
